- Test system: Hepatitis B virus
- method.description: Antiviral activity against telbivudine-resistant hepatitis B virus harboring reverse transcriptase M204I mutant infected in human Huh7 cells assessed as reduction in secreted DNA levels measured on day 7 by real-time PCR analysis
- Assay type: functional, organism-based
- assay.conditions: Huh-7, 168 h

{"columns": ["smiles.structure", "EC50"],
 "data": [
  ["Cc1cn([C@@H]2C[C@@H](O)[C@H](CO)O2)c(=O)[nH]c1=O", "> 20 µM"]
]}

----------
- method.description: Clearance in beagle dog at 5 mg/kg, iv by LC/MS/MS analysis
- Assay type: ADME, organism-based, Canis lupus familiaris
- assay.conditions: in vivo
metric: clearance (mL/min/kg)

{"columns": ["compound", "metric", "readout.number"],
 "data": [
  ["CCOC(=O)C1=C(CN2CCOCC2)NC(c2nccs2)=NC1c1ccc(F)cc1Br (stereo unspecified)", "clearance", 17.9]
]}

----------
- method.description: AUC (0 to 24 hrs) in beagle dog at 45 mg/kg, po by LC/MS/MS analysis
- Type: ADME, organism-based, Canis lupus familiaris
- Parameters: time < 24 hr, dose 45 mg/kg, route oral
- assay.conditions: in vivo

{"columns": ["molecule", "AUC(0-t) at 24 h, ng·h/mL"],
 "data": [
  ["CCOC(=O)C1=C(CN2CCOCC2)NC(c2nccs2)=NC1c1ccc(F)cc1Br (stereo unspecified)", 8470]
]}

----------
- Tested on: Hepatitis B virus
- method.description: Antiviral activity against entecavir-resistant hepatitis B virus harboring reverse transcriptase M204I/S202G/M250V triple mutant infected in human Huh7 cells assessed as reduction in intracellular DNA levels measured on day 7 by real-time PCR analysis
- Format: functional, organism-based
- assay.conditions: Huh-7, 168 h

{"columns": ["smiles.structure", "EC50"],
 "data": [
  ["C=C1[C@H](CO)[C@@H](O)C[C@@H]1n1cnc2c(=O)[nH]c(N)nc21", "> 20 µM"]
]}

----------
- System: Canis familiaris
- method.description: Cmax in beagle dog at 45 mg/kg, po by LC/MS/MS analysis
- Type: ADME, organism-based, Canis lupus familiaris
- Set-up: dose 45 mg/kg, route oral
- assay.conditions: in vivo

{"columns": ["compound", "Cmax / ng/mL"],
 "data": [
  ["CCOC(=O)C1=C(CN2CCOCC2)NC(c2nccs2)=NC1c1ccc(F)cc1Br (stereo unspecified)", 1180]
]}

----------
- System: Hepatitis B virus
- method.description: Antiviral activity against entecavir-resistant hepatitis B virus harboring reverse transcriptase M204I/S202G double mutant infected in human Huh7 cells assessed as reduction in secreted DNA levels measured on day 7 by real-time PCR analysis
- Format: functional, organism-based
- assay.conditions: Huh-7, 168 h

{"columns": ["smiles.structure", "EC50"],
 "data": [
  ["C=C1[C@H](CO)[C@@H](O)C[C@@H]1n1cnc2c(=O)[nH]c(N)nc21", "> 20 µM"]
]}

----------
- Test system: Canis familiaris
- method.description: Cmax in beagle dog at 15 mg/kg, po for 7 days by LC/MS/MS analysis
- Type: ADME, organism-based, Canis lupus familiaris
- Set-up: dose 15 mg/kg, route oral
- assay.conditions: in vivo, 168 h

{"columns": ["molecule", "target.desc", "unit.annotation", "Cmax"],
 "data": [
  ["CCOC(=O)C1=C(CN2CCOCC2)NC(c2nccs2)=NC1c1ccc(F)cc1Br (stereo unspecified)", "Canis familiaris", "ng/mL", 524]
]}
